Just for reference, the supplement of paper PMC12669032 is where these values come from.

System: Roseburia intestinalis
test: growth AUC relative to DMSO control (median of replicates) (fraction); higher = more growth (less inhibition), active = hit call of the paper
run_parameters: 20 µM; 24 h
Hi there, I'd appreciate the recorded growth AUC for every entry that follows.
Give bare numbers.

Below are worked cases with known answers.
COC(=O)C(C)Oc1ccc(Cl)cc1C (stereo unspecified) | 1.04
COC(=O)c1c(Cl)ccc(Cl)c1OC | 0.982
CC(C)NS(=O)(=O)NC(=O)c1cc(NC(N)=O)c(F)cc1Cl | 0.981
O=S(=O)(Cc1ccc(Cl)cc1)c1ccc(Cl)cc1 | 1.05
COC(=O)c1cccc(C)c1S(=O)(=O)NC(=O)Nc1nc(OCC(F)(F)F)nc(N(C)C)n1 | 0.984

## Task // Input: "Oc1c(Cl)cc(Cl)c(Cl)c1Cc1c(O)c(Cl)cc(Cl)c1Cl" . Output its growth AUC only.
## Result 0.0498

====

Kindly state growth AUC for each of the entries shown.
Test system: Bacteroides dorei
test: growth AUC relative to DMSO control (median of replicates) (fraction); higher = more growth (less inhibition), active = hit call of the paper
run_parameters: 20 µM; 24 h
Numbers only.

CN(C)C(=O)Nc1ccc(Cl)c(Cl)c1 | 0.981

Each of the following entries comes with a recorded value; kindly state growth AUC for each.
1. COc1c(Cl)ccc(Cl)c1C(=O)O
2. c1ccc(Nc2ccccc2)cc1
3. Cc1nc(C(F)(F)F)c(C(=O)Nc2c(Br)cc(OC(F)(F)F)cc2Br)s1
4. CC(C)c1cc(Oc2ccccc2)cc(C(C)C)c1NC(=S)NC(C)(C)C
5. CSC(=O)c1cccc2nnsc12

## Result
1: 1.01; 2: 1.03; 3: 0.946; 4: 0.983; 5: 0.978

====

Test system: Streptococcus salivarius
test: growth AUC relative to DMSO control (median of replicates) (fraction); higher = more growth (less inhibition), active = hit call of the paper
run_parameters: 20 µM; 24 h
Give measured growth AUC for each item. Keep answers brief.
Give bare numbers.

COC(=O)c1ccc(C)cc1C1=NC(C)(C(C)C)C(=O)N1 (racemic) | 0.97

Hi there! I need growth AUC for each item below, if you can.
1. CC1COc2ccccc2N1C(=O)C(Cl)Cl (configuration not stated)
2. Clc1ccc(Sc2cc(Cl)c(Cl)cc2Cl)cc1
3. O=C(O)COc1cccc(Cl)c1Cl
4. C=CCc1ccc(O)c(OC)c1
5. CC(C)N(C)S(=O)(=O)NC(=O)c1cc(-n2c(=O)cc(C(F)(F)F)[nH]c2=O)c(F)cc1Cl
6. CCc1cccc(CC)c1N(COC)C(=O)CS(=O)(=O)[O-].[Na+]
7. O=C(O)Cc1cccc2ccccc12

## Result
[0.944, 0.933, 0.973, 0.975, 1.01, 0.964, 0.99]

The following compounds each have a reported value; give each one's growth AUC.
1. CCC(C)Nc1nc(N)nc(Cl)n1 (configuration not stated)
2. Cc1c(C(=O)c2c[nH]n(C)c2=O)ccc(S(C)(=O)=O)c1C1=NOCC1
3. COc1cc(OC)c(Cl)cc1N
4. COCC(=O)N(c1c(C)cccc1C(=O)O)C(C)C(=O)O (configuration not stated)

## Result
0.987
1.01
1.06
0.982

====

System: Parabacteroides distasonis
test: growth AUC relative to DMSO control (median of replicates) (fraction); higher = more growth (less inhibition), active = hit call of the paper
run_parameters: 20 µM; 24 h
Output schema: class label derived from growth AUC. Mapping: low = under 0.9, middle = from 0.9 up to 1, high = 1 and over

O=C(Oc1ccccc1)n1c(C(F)(F)F)nc2cc(Cl)c(Cl)cc21 | low
CCCCCCCCCC[N+](C)(C)Cc1ccccc1.[Cl-] | low
CCCCC(CC)COC(=O)COc1cc(Cl)c(Cl)cc1Cl (stereo not given) | middle
C=CCc1ccc(OC)c(OC)c1 | high
Cc1cc(C)c(C2=C(O)C3(CCCC3)OC2=O)c(C)c1 | low

## Task # bin lookup: classify "Cn1cc(C(=O)Nc2ccc(F)cc2-c2ccc(Cl)c(Cl)c2)c(C(F)F)n1" by its growth AUC
## Result low

## Task Entry "CN(C)C(N)=O" belongs to which category?
## Result middle

## Task Given "CN(C)C(=O)Nc1ccc(Cl)c(Cl)c1" , name the class its growth AUC places it in.
## Result high

## Task Tag the class for CCOC(=O)C(C)Oc1ccc(Oc2nc3ccc(Cl)cc3o2)cc1 (racemic)
## Result low

## Task Class for "COC(=O)c1ccc(CNS(C)(=O)=O)cc1S(=O)(=O)NC(=O)Nc1nc(OC)cc(OC)n1" ?
## Result high

## Task Band for "Cc1nn(C)c(Oc2ccccc2)c1/C=N/OCc1ccc(C(=O)OC(C)(C)C)cc1" ?
## Result high

## Task Kindly state the category for this compound: "Nc1ccc(O)cc1"
## Result middle

## Task // return the class label for "NC1=C(Cl)C(=O)c2ccccc2C1=O"
## Result low

## Task Dear colleague, I would appreciate it if you could identify the bin for "c1ccc(CNc2ncnc3nc[nH]c23)cc1" and reply at your convenience.
## Result high

## Task Band of O=S(Cc1ccc(Cl)cc1)c1ccc(Cl)cc1 (stereo not given) ?
## Result middle

## Task Which class does "COc1nc(N)nc(C(F)(F)F)n1" fall in?
## Result high

## Task Class label required: "Nc1nc2ccccc2[nH]1"
## Result low

====

Test system: Streptococcus salivarius
test: growth AUC relative to DMSO control (median of replicates) (fraction); higher = more growth (less inhibition), active = hit call of the paper
run_parameters: 20 µM; 24 h
Consider the following compounds; for each one, report its growth AUC.
Numbers only.

O=S(Cc1ccc(Cl)cc1)c1ccc(Cl)cc1 (centres undefined) | 0.984
Nc1cc(Cl)nc(C(=O)O)c1Cl | 1.03
CCCCCCC(C)OC(=O)COc1nc(F)c(Cl)c(N)c1Cl (centres undefined) | 0.966
CCOC(=O)/C(Cl)=C/c1cc(N2C(=O)C3=C(CCCC3)C2=O)ccc1Cl | 0.96
COC(=O)c1c(Cl)c(Cl)c(C(=O)OC)c(Cl)c1Cl | 0.962

Below is a list of compounds. For each, state its recorded growth AUC.
1. COC(=O)Nc1ccc(Cl)c(Cl)c1
2. Oc1cccc2ccccc12
3. CC1=C(C(=O)Nc2ccccc2)CCCO1
4. O.O=C(Nc1ccc(Cl)c(Cl)c1)Nc1cc(Cl)ccc1Oc1ccc(Cl)cc1S(=O)(=O)[O-].[Na+]
5. CON=C(Cc1cccnc1)c1ccc(Cl)cc1Cl
6. CCS(=O)(=O)c1nnc(N(C)C(=O)NC)s1
7. CCC/C(=N\OCC(C)Oc1ccc(Cl)cc1)C1=C(O)CC(C2CCCSC2)CC1=O (centres undefined)
8. CCCCCCCCCC[N+](C)(C)Cc1ccccc1.[Cl-]

## Result
[0.918, 0.986, 1.03, 0.478, 0.997, 0.99, 0.94, 0.926]

Return reported growth AUC values for all items listed beneath this line.
1. Cc1cc(C2CC2)nc(Nc2ccc(O)cc2)n1
2. Cc1ccc(Cl)cc1
3. O=C(Nc1ccc(O)cc1-c1ccc(Cl)cc1)c1cccnc1Cl
4. COC(=O)CCCOc1ccc(Cl)cc1Cl
5. CCOc1ccc(NC(=O)OC(C)C)cc1OCC
6. CCCCOCCOC(=O)COc1ccc(Cl)cc1Cl

## Result
1: 1.01; 2: 1.02; 3: 1.03; 4: 0.931; 5: 0.975; 6: 0.948

====

Test system: Clostridium difficile
test: growth AUC relative to DMSO control (median of replicates) (fraction); higher = more growth (less inhibition), active = hit call of the paper
run_parameters: 20 µM; 24 h
experimental_endpoint: growth AUC
One number for each entry.

Record excerpt, results attached:
CCCNCCOc1c(Cl)cc(Cl)cc1Cl | 0.973
O=c1cccc2n1CCn1c-2cccc1=O | 0.993
Cc1[nH]oc(=O)c1N=Nc1ccccc1Cl | 0.964
CCC/C(=N\OCC(C)Oc1ccc(Cl)cc1)C1=C(O)CC(C2CCCSC2)CC1=O (stereo not given) | 1.02
COCCOc1ccccc1S(=O)(=O)NC(=O)Nc1nc(OC)nc(OC)n1 | 0.984

Give measured growth AUC for every item shown.
1. Cc1nn(C)c(F)c1C(=O)Nc1ccccc1C(C)CC(C)C (stereo not given)
2. CCOc1nc(F)cc2nc(S(=O)(=O)Nc3c(Cl)cccc3C(=O)OC)nn12
3. CC(C)CCCCCOC(=O)C(C)Oc1ccc(Cl)cc1Cl (stereo not given)
4. S=C([S-])NCCNC(=S)[S-].S=C([S-])NCCNC(=S)[S-].[Mn+2].[Zn+2]
5. COC(=O)Cc1cccc2ccccc12
6. CC(C)C(O)(c1ccc(OC(F)(F)F)cc1)c1cncnc1 (stereo not given)
7. FC(F)(F)c1cccc(C(c2ccccc2)(c2ccccc2)n2cncn2)c1
8. O=S(=O)(Oc1ccc(Cl)cc1)c1ccccc1

## Result
1. 0.982
2. 0.98
3. 1.06
4. 0.994
5. 1.01
6. 0.985
7. 1.04
8. 1

// for each compound in input: emit growth AUC
1. COCC(=O)N(c1c(C)cccc1C(=O)O)C(C)C(=O)O (stereo not given)
2. COc1ccccc1C(=O)NS(=O)(=O)c1ccc(C(=O)NC2CC2)cc1
3. CN(C)C(=O)Nc1ccccc1
4. O=C(O)COc1cccc(Cl)c1Cl
5. CCc1ccc(O)cc1
6. COCCN(C(=O)CO)c1c(C)cccc1C(=O)O

## Result
1: 1.04; 2: 0.985; 3: 1.01; 4: 1; 5: 0.957; 6: 0.94
